- Test system: K562
- Assay Procedure: Antiproliferative activity against human K562 cells after 48 hrs by MTT assay
- Assay type: functional, cell-based
- Details: K562, 48 h
The following compounds are shown together with reported IC50 values.

Ask: So what does the record say about IC50 for "COc1ccc2c(-c3ccc(OCCN4CCOCC4)cc3)c(-c3ccccc3)c(=O)oc2c1" ?
Reply: > 100 µM

Ask: So what does the record say about IC50 for "CCN(CC)CCOc1ccc2c(-c3ccc(O)cc3)c(-c3ccccc3)c(=O)oc2c1" ?
Reply: > 100 µM

Ask: So what does the record say about IC50 for "O=c1oc2cc(OCCN3CCOCC3)ccc2c(-c2ccc(OCCN3CCOCC3)cc2)c1-c1ccc(OCCN2CCOCC2)cc1" ?
Reply: > 100 µM

Ask: So what does the record say about IC50 for "O=c1oc2cc(OCCN3CCOCC3)ccc2c(-c2ccc(O)cc2)c1-c1ccccc1" ?
Reply: > 100 µM

Ask: So what does the record say about IC50 for "O=c1oc2cc(O)ccc2c(-c2ccc(O)cc2)c1-c1ccccc1" ?
Reply: > 100 µM

Ask: So what does the record say about IC50 for "O=c1oc2cc(OCCN3CCOCC3)ccc2c(-c2ccc(OCCN3CCOCC3)cc2)c1-c1ccccc1" ?
Reply: > 100 µM

Ask: So what does the record say about IC50 for "COc1ccc2c(-c3ccc(O)cc3)c(-c3ccccc3)c(=O)oc2c1" ?
Reply: > 100 µM

---

- Test system: DNA
- Assay Procedure: Binding affinity to calf thymus DNA in phosphate buffer at pH 7.4 at 5 uM after 10 mins by fluorescence spectroscopy
- Assay type: nucleic-acid assay
- Details: Bos taurus
Readout Kind: Activity (×10³ /M)
Write the number in ×10³ /M without appending the unit.

COc1ccc2c(-c3ccc(OCCN4CCCCC4)cc3)c(-c3ccccc3)c(=O)oc2c1: 3.12

Here is another compound to look at.
Ask: So what does the record say about Activity for "O=c1oc2cc(OCCN3CCCCC3)ccc2c(-c2ccc(OCCN3CCCCC3)cc2)c1-c1ccccc1" ?
Reply: 4.21

Hey, just so you know, these numbers are from ChEMBL document CHEMBL2412973.
